# measuredOn: Human MrgprX2 (Homo sapiens, UniProt Q96LB1)
# Construct: expressed in transfected cells
# assayComment: Human MrgprX2 antagonist FLIPR intracellular calcium mobilization assay
# Assay type: cell-based
# conditionSummary: antagonist activity, recombinant hMrgpMRGPRX2 expressing cells, read-out: Human MrgprX2 Antagonist pIC50 (converted)
measuredEndpoint: IC50 (nM)

Example cases with answers are listed next.
Enquiry: Bench note: what IC50 did CCN(C[C@H](C)O)C(=O)Nc1ncc(Oc2cccnc2)s1 [Compound E166] show?
Return: 100

Enquiry: Again, but for C[C@H](O)CN(C)C(=O)Nc1ncc(Oc2cccnc2)s1 [Compound E167]
Return: 3160

Enquiry: Queued: CC(=O)N1CCC(C)(C(=O)Nc2ncc(Cc3ccccc3F)s2)CC1 [Compound E059]
Return: 3160

Enquiry: Same question for CC1(C(=O)Nc2ncc(Oc3ccc(F)cc3)s2)CCOCC1 [Compound E077] please.
Return: 39.8

Enquiry: Then what about the molecule NS(=O)(=O)N1CC[C@@H]1C(=O)Nc1ncc(Cc2cccc(F)c2)s1 [Compound E065] ?
Return: 79.4

(P) C[C@H](O)CN(C)C(=O)Nc1ncc(Cc2cc(F)ccc2F)s1 [Compound E136]
(Q) CCN(C[C@H](C)O)C(=O)Nc1ncc(Oc2cncnc2)s1 [Compound E201]
(R) CC(C)(C)OC(=O)N1CCC(C)(C(=O)Nc2ncc(Cc3ccccc3F)s2)CC1 [Compound E018]
(S) CCN(C[C@H](C)O)C(=O)Nc1ncc(Oc2cc(C#N)ccc2F)s1 [Compound E193]
(T) CCN(C[C@H](C)O)C(=O)Nc1ncc(Oc2ccnc(F)c2)s1 [Compound E185]
Enquiry: Order the entries by their reported IC50, beginning at the minimum. # answer = labels listed in requested order
Return: T, P, S, R, Q
(T: 2 nM, P: 3.98 nM, S: 39.8 nM, R: 316 nM, Q: 2510 nM)

(1) C[C@@]1(C(=O)Nc2ncc(Cc3cc(F)cc(F)c3)s2)CCOC1 (single isomer, unassigned) [Compound E052]
(2) CC(O)CN(C)C(=O)Nc1ncc(Cc2ccccc2F)s1 (stereo not shown) [Compound E099]
(3) CCN(C[C@H](C)O)C(=O)Nc1ncc(Oc2ccc(C(=O)OC)cc2)s1 [Compound E214]
(4) CN(C[C@H](O)C(F)(F)F)C(=O)Nc1ncc(Cc2cccc(F)c2)s1 [Compound E109]
(5) CCN(C[C@H](C)O)C(=O)Nc1ncc(Oc2ccccc2)s1 [Compound E155]
Enquiry: Rank descending by IC50. Respond with an ordered listing of the labels, as requested.
Return: 3, 2, 4, 1, 5
(3: 3160 nM, 2: 398 nM, 4: 25.1 nM, 1: 3.98 nM, 5: 0.631 nM)

(I) CC(C)(C)OC(=O)N1CCC[C@@H]1C(=O)Nc1ncc(Oc2ccccc2)s1 [Compound E082]
(II) CC1(C(=O)Nc2ncc(Cc3cc(F)ccc3F)s2)COC1 [Compound E096]
(III) CC1(C(=O)Nc2ncc(Cc3cc(F)cc(F)c3)s2)CCOC1 (stereo not shown) [Compound E046]
(IV) O=C(CN1CCCCC1)Nc1ncc(Cc2ccccc2F)s1 [Compound E013]
(V) C[C@]1(C(=O)Nc2ncc(Cc3cccc(F)c3)s2)CCCN1 [Compound E061]
Enquiry: Hey, quick one: sort these by IC50, largest value first please. Please list each label once, in the requested order.
Return: V, I, IV, II, III

(P) C[C@H](O)CN(C)C(=O)Nc1ncc(Oc2ccccc2F)s1 [Compound E168]
(Q) C[C@H](O)CN(C)C(=O)Nc1ncc(Cc2cccc(F)c2)s1 [Compound E101]
Enquiry: Choose between P and Q : whose measured IC50 value is numerically larger? # answer = label of selected item
Return: Q
(Q: 39.8 nM, P: 3.98 nM)

====

# measuredOn: Human MrgprX2 (Homo sapiens)
# Construct: expressed in transfected cells
# assayComment: Human MrgprX2 antagonist FLIPR intracellular calcium mobilization assay
# Format: cell-based
# conditionSummary: antagonist activity, recombinant hMrgpMRGPRX2 expressing cells, read-out: Human MrgprX2 Antagonist pIC50 (converted)
measuredEndpoint: IC50 (nM)

Below, each entry is followed by its recorded IC50 result.
Enquiry: Returns the measured IC50 for the input compound. Input: C[C@H](O)CN(C)C(=O)Nc1ncc(Oc2ccc(C(F)(F)F)cc2)s1
Return: 2510

Enquiry: For CC(C)(O)C(=O)Nc1ncc(Cc2ccccc2F)s1 then?
Return: 3980

Enquiry: Next compound: C[C@@]1(C(=O)Nc2ncc(Cc3cccc(F)c3)s2)CCOC1 (single isomer, unassigned)
Return: 126

Enquiry: Lookup NS(=O)(=O)N1CCC[C@@H]1C(=O)Nc1ncc(Oc2ccccc2)s1
Return: 15.8

Enquiry: Next: COc1ccc(F)cc1Cc1cnc(NC(=O)N(C)C[C@H](C)O)s1
Return: 398

Enquiry: Now this one: CN(C)C(C)(C)C(=O)Nc1ncc(Cc2ccccc2F)s1
Return: 501

(A) C[C@H](O)CN(C)C(=O)Nc1ncc(Oc2ccc(C#N)cc2F)s1
(B) C[C@H](O)CN(C)C(=O)Nc1ncc(Cc2cccc(C#N)c2)s1
(C) CC1(C(=O)Nc2ncc(Cc3ccccc3F)s2)CCN(S(C)(=O)=O)CC1
(D) O=C(Nc1ncc(Cc2cccc(F)c2)s1)N1CC(F)(F)C[C@@H]1CO
(E) C[C@H](C(=O)Nc1ncc(Cc2cccc(F)c2)s1)N(C)S(N)(=O)=O
Enquiry: Number of compounds to sort: 5. Sort criterion: IC50, ascending. API: response body holds the labels in the requested order.
Return: D, A, E, B, C

====

# measuredOn: Human MrgprX2 (Homo sapiens, UniProt Q96LB1)
# Construct: expressed in transfected cells
# Sequence (Q96LB1 1-330): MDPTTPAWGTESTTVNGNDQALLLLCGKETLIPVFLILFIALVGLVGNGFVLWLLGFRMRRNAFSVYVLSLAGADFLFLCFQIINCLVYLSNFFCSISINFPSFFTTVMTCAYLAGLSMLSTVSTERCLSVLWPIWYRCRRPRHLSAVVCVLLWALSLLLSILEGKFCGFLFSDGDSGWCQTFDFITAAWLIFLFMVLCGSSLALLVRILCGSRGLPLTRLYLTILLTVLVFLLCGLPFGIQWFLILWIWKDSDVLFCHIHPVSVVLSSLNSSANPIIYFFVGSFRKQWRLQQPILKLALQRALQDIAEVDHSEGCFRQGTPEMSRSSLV
# assayComment: Human MrgprX2 antagonist FLIPR intracellular calcium mobilization assay
# Assay type: cell-based
# conditionSummary: antagonist activity, recombinant hMrgpMRGPRX2 expressing cells, read-out: Human MrgprX2 Antagonist pIC50 (converted)
measuredEndpoint: IC50 (nM)

(A) CS(=O)(=O)N1CCC[C@@H]1C(=O)Nc1ncc(Cc2cccc(F)c2)s1
(B) C[C@H](O)CN(C)C(=O)Nc1ncc(Cc2cccc(Cl)c2)s1
(C) C[C@H](O)CN(C)C(=O)Nc1ncc(Oc2cccc(C#N)c2F)s1
Enquiry: Lab note: IC50 ranking, ascending, for the listed compounds. Please list the labels according to the requested order.
Return: B, C, A
